# assayProtocol: qHTS assay for identifying genotoxic compounds that show differential cytotoxicity against isogenic chicken DT40 cell lines with known DNA damage response pathways - Rev3 mutant cell line (AID 743014); further: nearly all actives have a fitted effect of over 55% in size
# measurementParameters: chicken DT40 Rev3-/- viability, CellTiter-Glo, 40 h; series mostly up to 68.4 µM
Inconclusive results are not listed. The source made the active and inactive calls. The call rests on the fitted dose curve; in most records, active means well fitted cell-killing curve with a large enough effect in the repeat runs; inconclusive means weak or mixed curves, or effect the other way; inactive means no such curve, though single readings can be large or run the other way.
Please state which outcome applies, choosing from true (active), false (inactive)

| compound | qualitativeLabel |
| --- | --- |
| C=C1C(=C/C=C2\CCC[C@]3(C)[C@@H]([C@H](C)CCCC(C)C)CC[C@@H]23)C[C@@H](O)C[C@@H]1O | true |
| CC(C)(S)C(=O)N[C@@H](CS)C(=O)O | false |
| NC(=O)[C@H]1O[C@@H](O)[C@H](O)[C@@H](O)[C@@H]1O | false |

Name the outcome recorded for `CO/N=C(\C(=O)N[C@@H]1C(=O)N2C(C(=O)[O-])=C(C[n+]3cccc4c3CCC4)CS[C@H]12)c1csc(N)n1` in the assay.
false

Name the outcome recorded for CC(C)(Oc1ccc(C2CCCc3ccccc32)cc1)C(=O)O (stereo not drawn) in the assay.
false

Name the outcome recorded for `COC1=C(OC)C(=O)C(C/C=C(\C)CC/C=C(\C)CC/C=C(\C)CC/C=C(\C)CC/C=C(\C)CC/C=C(\C)CC/C=C(\C)CC/C=C(\C)CC/C=C(\C)CCC=C(C)C)=C(C)C1=O` in the assay.
false

Name the outcome recorded for `CCOc1cc(CC(=O)N[C@@H](CC(C)C)c2ccccc2N2CCCCC2)ccc1C(=O)O` in the assay.
false

Name the outcome recorded for CCC(C)(C)c1ccc(CC(C)CN2C[C@@H](C)O[C@@H](C)C2)cc1 (stereo partly drawn) in the assay.
true
